target: Diaphorase; test: peptide array, 1 uM diaphorase, binding without FAD / with FAD
reported property: noFAD/FAD

Completed entries (count: 5):
1. RQAYLFGGSG 3.23
2. LAKQNRVEDGSG 0.537
3. YRFPNAQSPGGSG 2.63
4. AQVAVDGFYVDGSG 0.652
5. RWQYYNQKFGSG 2.88

P = WLDLGVFPYQHLGSG
Q = RWRYYWKSEGSG
Return label of the item with the larger noFAD/FAD. Candidates: P , Q . Let me know the label of the one you choose.
Q
